# MEASUREMENT TARGET: UniProt P06935
IC50 values for the compounds below.

See these solved cases before continuing.
Brc1cccc(-c2cnc3n2CCCCC3)c1 :: > 50 µM
O=C(OC1CCCCC1)c1ccc2c(c1)C1C=CCC1C(C(=O)O)N2 (stereo not drawn) :: > 50 µM

Item CNC(=O)Oc1ccc2c(c1)[C@]1(C)CCN(C)[C@@H]1N2C with UniProt P06935 - IC50? > 50 µM

----------
# key: entry, value: pIC50
# MEASUREMENT TARGET: Genome polyprotein (West Nile virus, UniProt P06935)
# Sequence (P06935 1371-1501 limits assumed): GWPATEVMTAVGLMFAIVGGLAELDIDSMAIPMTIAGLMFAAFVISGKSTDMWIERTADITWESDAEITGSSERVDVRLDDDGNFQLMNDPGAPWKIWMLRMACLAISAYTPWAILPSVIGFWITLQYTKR
# Sequence (P06935 1502-2120 limits assumed): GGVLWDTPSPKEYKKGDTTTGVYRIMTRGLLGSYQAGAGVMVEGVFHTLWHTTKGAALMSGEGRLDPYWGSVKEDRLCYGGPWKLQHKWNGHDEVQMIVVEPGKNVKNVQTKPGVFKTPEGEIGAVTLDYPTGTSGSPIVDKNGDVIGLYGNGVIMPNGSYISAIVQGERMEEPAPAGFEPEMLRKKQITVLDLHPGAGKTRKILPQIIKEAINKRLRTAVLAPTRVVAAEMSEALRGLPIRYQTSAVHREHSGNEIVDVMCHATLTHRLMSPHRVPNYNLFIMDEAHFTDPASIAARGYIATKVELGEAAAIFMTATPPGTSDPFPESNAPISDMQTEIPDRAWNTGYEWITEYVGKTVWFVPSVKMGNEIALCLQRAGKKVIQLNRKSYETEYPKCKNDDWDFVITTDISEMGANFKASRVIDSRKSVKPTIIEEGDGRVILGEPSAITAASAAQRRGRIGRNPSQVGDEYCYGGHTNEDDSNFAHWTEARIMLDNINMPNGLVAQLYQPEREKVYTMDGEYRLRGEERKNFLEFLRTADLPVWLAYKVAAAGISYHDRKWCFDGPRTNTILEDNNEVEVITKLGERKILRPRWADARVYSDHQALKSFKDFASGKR
pIC50: −log10 of the molar value.

These solved cases illustrate the format of a correct answer.
CCOC(=O)CNC(=O)C(Cc1ccccc1)NS(=O)(=O)c1cccs1 (stereo unspecified) :: < 4.30
CCn1cc(C(=O)Nc2cccc(C(=O)OC)c2)c(=O)c2ccc(C)nc21 :: < 4.30
COc1ccc2[nH]c(C(=O)O)c(CCNC(C)=O)c2c1 :: < 4.30
Cn1cc(C(=O)NCN2CCCCC2)c2ccccc21 :: < 4.30
Cc1ccc(S(=O)(=O)n2nc(OC(=O)c3ccco3)cc2N)cc1 [MLS000033865] :: 4.84

Consider the record given below.
Request body: readout pIC50, system Genome polyprotein (West Nile virus, UniProt P06935), query CCOC(=O)C1CCN(S(=O)(=O)c2ccc(C(=O)OC)cc2)CC1 . Return the value. < 4.30
